- System: LOX IMVI melanoma
- MEASUREMENT_NOTES: NCI-60 one-dose screen, 48 h (100 = growth as untreated, 0 = no growth, -100 = all killed)
- COND: 10 µM
The panel holds about 83,000 compounds, 20% with a hit somewhere; the sample as a whole holds those more often.

MOLECULE	growth [%]
NC(=S)c1c(N)n(C2OC(CO)C(O)C2O)c2ncnc(N)c12 (configuration not stated)	-3.22
COc1cccc2c1Cc1ccccc1-2	80.3
Clc1cccc(Cl)c1C1CSc2ccccc2N=C1c1ccccc1 (configuration not stated)	-4.86
CCOC(=O)C(=O)CC(=O)c1ccccc1	98.6
C/C(Cc1ccccc1)=N\O	119
Cn1/c(=N\N=C\c2ccccc2OCCO)sc2ccccc21	100
c1ccc2[nH]c(Cc3nc4ccccc4[nH]3)nc2c1	109
CN1CCN(C(=S)S)CC1	87.9
Oc1cc(O)c2c(c1)O[C@H](c1ccc(O)c(O)c1)[C@@H](O)C2	100
CN=S(=O)(OCCCCCOS(=O)(=NC)c1ccc(C)cc1)c1ccc(C)cc1 (configuration not stated)	88.1
CCCC(=O)c1cccs1	95.9
CCOC(=O)c1ccc(C(C)(C)C)cc1	99.8
NNC(=O)N/N=C1\C(=O)N(c2nccs2)C(=O)C(=O)C1c1nc2ccccc2s1 (configuration not stated)	96.3
ClCc1cccc2c(CCl)cccc12	-51.8
Oc1cccc(CNC2CCCCC2)c1	113
Cc1ccc(O)c(N)c1	105
N#CCCN1C(=O)CCC1C(=O)O (configuration not stated)	120
Cc1ccc(C)c(CN(C)C)c1O	98.9
CCOC(=O)CSCCC#N	96.3
O=S(=O)(OCCOS(=O)(=O)c1ccccc1)c1ccccc1	91.7
Cc1cccnc1NC1OC(=O)c2ccccc21 (configuration not stated)	94.9
COC(=O)C1=C(C)C(=O)CC1	118
CCOc1ccc2c(c1)c(C)cc(C)[n+]2CC	73.8
C=CCc1cc(OC)c(OC)c(OC)c1	102
O=C(c1cccc(C(=O)c2ccc3c4c(cccc24)C(=O)N(c2ccccc2)C3=O)c1)c1ccc2c3c(cccc13)C(=O)N(c1ccccc1)C2=O	91.2
CCOC(=O)N[C@H]1CCc2cc(OC)c(OC)c(OC)c2-c2ccc(SC)c(=O)cc21	22.4
O=S(=O)(O)C(C(I)I)S(=O)(=O)O	101

----------
- System: TK-10 renal
- MEASUREMENT_NOTES: NCI-60 one-dose screen, 48 h (100 = growth as untreated, 0 = no growth, -100 = all killed)
- COND: 10 µM unless noted
The panel holds about 83,000 compounds, 20% with a hit somewhere; the sample as a whole holds those more often. Active and inactive are the calls of the source. The calls were made as follows: active = growth percent below 10; inactive = the rest.
growth values for the compounds below.
OBSERVED_PROPERTY: growth

COMPOUND	OBSERVED_PROPERTY	TEST_VALUE
Cc1cc(Nc2ccc3c(c2)OCO3)c2cc3c(cc2n1)OCO3	growth	59.7% (inactive)
Cc1ccc[n+](CCC(N)=O)c1	growth	94.9% (inactive)
O=C(CCl)Nc1ccccc1SCc1cc(Cl)cc2c1OCOC2	growth	126% (inactive)
CN1CCN(C(=S)S)CC1	growth	111% (inactive)
Cc1cc(=O)n(Nc2ccccc2)c(O)c1C#N	growth	104% (inactive)
COC(=O)c1cccc([N+](=O)[O-])c1	growth	101% (inactive)
NNc1ncnc2nc[nH]c12	growth	67.1% (inactive)
O=C(NC(=S)N1CC=CCC1)c1ccccc1	growth	94.5% (inactive)
Clc1ncnc2nc[nH]c12	growth	107% (inactive)
CCOC(=O)CNC(=O)Sc1ccc(C(C)(C)C)cc1	growth	96% (inactive)
O=c1n(CC2CO2)c(=O)n(CC2CO2)n1CC1CO1 (stereo not given)	growth	74.2% (inactive)
O=C1C=C(c2ccccc2)C(O)(c2ccccc2)C1 (stereo not given)	growth	99.6% (inactive)
Cc1ccc(S(=O)(=O)CCCl)cc1	growth	97.4% (inactive)
O=c1cc(Cl)nc2ccccn12	growth	105% (inactive)
C1CCc2onc(-c3noc4c3CCCCC4)c2CC1	growth	108% (inactive)
C=COC(=O)C(C)(C)C	growth	98.6% (inactive)
Clc1cccc(Cl)c1CSc1nc2ccccc2n2cccc12	growth	103% (inactive)
CC(C)N(C(=O)c1ccccc1)C(C)C	growth	98.2% (inactive)
CCCNS(=O)(=O)c1ccc(Cl)cc1	growth	106% (inactive)
C[n+]1cc2cc3c(cc2c2ccccc21)OCO3	growth	92.8% (inactive)
O=[N+]([O-])c1c(Cl)ncnc1Cl	growth	107% (inactive)
COc1ccc(NNS(=O)(=O)O)cc1	growth	103% (inactive)
Cc1cccnc1NC1OC(=O)c2ccccc21 (stereo not given)	growth	97% (inactive)
C=CCC(O)C=C (stereo not given)	growth	96.2% (inactive)
CN(C)c1ccc2c(N(C)C)cc(N(C)C)nc2c1	growth	104% (inactive)
CC(C)C(=O)OCCOc1ccc(C(C)(C)C)cc1	growth	93.7% (inactive)
NC(=O)NCCO	growth	96.5% (inactive)
O=C1NCC2CCCC1C2 (stereo not given)	growth	101% (inactive)
COC(=O)Cc1cc(COC(C)=O)ccc1C	growth	88.5% (inactive)
CN=S(=O)(OCCCCCOS(=O)(=NC)c1ccc(C)cc1)c1ccc(C)cc1 (stereo not given)	growth	118% (inactive)
